Where these numbers come from: patent US20210155689A1

Molecular target: T1, human LAG-3 on cells (HEK293-hLAG-3 stable cell line) (human, UniProt P18627 23-525)
T1 sequence: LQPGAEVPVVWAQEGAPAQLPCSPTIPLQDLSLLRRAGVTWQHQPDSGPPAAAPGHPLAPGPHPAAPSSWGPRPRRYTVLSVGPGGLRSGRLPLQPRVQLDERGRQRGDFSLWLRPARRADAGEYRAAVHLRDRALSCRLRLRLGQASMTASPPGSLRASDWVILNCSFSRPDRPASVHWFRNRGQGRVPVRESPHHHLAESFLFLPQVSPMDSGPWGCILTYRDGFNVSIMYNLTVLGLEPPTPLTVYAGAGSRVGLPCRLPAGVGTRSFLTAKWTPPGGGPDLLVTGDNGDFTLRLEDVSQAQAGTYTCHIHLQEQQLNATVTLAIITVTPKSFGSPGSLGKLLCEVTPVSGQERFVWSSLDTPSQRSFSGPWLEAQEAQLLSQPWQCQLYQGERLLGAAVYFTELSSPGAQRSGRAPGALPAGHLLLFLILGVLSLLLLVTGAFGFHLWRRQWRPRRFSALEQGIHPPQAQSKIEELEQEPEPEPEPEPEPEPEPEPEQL
Assay: cell-based or functional assay
Kindly supply the reported IL-2 production, SEB-dependent PBMC stimulation test, 10 ug/ml, N = 2 values for the records listed here.
Unit pg/mL implied. Number only.

Given item 405B8H3 mouse-human chimeric antibody (antibody, V domains shown, also called mAb103-405B8H3) VH: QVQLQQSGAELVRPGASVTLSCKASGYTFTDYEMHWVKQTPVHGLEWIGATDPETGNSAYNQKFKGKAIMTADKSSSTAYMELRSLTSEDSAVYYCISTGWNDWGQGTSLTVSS VL: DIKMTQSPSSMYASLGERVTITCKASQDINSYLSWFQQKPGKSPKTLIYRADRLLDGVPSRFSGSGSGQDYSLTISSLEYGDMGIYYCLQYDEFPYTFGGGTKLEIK , the value recorded as its IL-2 production, SEB-dependent PBMC stimulation test, 10 ug/ml, N = 2 is 3160

Entry under test: 409B11E12 mouse-human chimeric antibody (antibody, V domains shown, also called mAb104-409B11E12) VH: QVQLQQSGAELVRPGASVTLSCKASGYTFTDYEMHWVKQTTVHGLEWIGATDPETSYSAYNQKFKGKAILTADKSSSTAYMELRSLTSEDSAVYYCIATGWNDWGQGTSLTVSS VL: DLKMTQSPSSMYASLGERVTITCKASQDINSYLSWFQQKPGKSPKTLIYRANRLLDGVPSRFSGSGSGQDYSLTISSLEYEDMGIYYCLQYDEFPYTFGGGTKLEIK . Its IL-2 production, SEB-dependent PBMC stimulation test, 10 ug/ml, N = 2 was 3010

get_value(item= 105F1E10 mouse-human chimeric antibody (antibody, V domains shown, also called mAb009-105F1E10) VH: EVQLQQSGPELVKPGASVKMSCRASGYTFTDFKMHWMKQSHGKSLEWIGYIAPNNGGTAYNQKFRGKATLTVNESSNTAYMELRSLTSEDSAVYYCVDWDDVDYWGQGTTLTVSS VL: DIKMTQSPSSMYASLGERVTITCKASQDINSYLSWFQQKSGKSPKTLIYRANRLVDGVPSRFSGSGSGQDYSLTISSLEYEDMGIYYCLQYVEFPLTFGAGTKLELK , readout=IL-2 production, SEB-dependent PBMC stimulation test, 10 ug/ml, N = 2) returns 3650

Item: 556F6B8 mouse-human chimeric antibody (antibody, V domains shown, also called mAb123-556F6B8; 556F8B8) VH: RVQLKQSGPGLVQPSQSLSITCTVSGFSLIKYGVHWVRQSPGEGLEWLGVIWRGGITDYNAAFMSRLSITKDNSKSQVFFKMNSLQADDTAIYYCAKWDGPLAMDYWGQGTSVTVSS VL: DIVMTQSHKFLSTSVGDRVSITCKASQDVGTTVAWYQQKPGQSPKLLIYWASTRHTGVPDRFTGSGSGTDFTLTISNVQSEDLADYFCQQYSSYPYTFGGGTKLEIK | IL-2 production, SEB-dependent PBMC stimulation test, 10 ug/ml, N = 2: 3260
